# Assay overview: logD determination (liquid-liquid distribution chromatography, octanol-coated column)
# Measurement setup: octanol-coated column with octanol-saturated mobile phase, pH 3
Test readout: chromatographic logD

| Compound | Test readout | Comparator | Value observed |
| --- | --- | --- | --- |
| NCCCC[C@H](N[C@@H](CCc1ccccc1)C(=O)O)C(=O)N1CCC[C@H]1C(=O)O [Lisinopril] | chromatographic logD | = | -0.85 |
| Oc1ncnc2[nH]ncc12 [Allopurinol] | chromatographic logD | = | -0.3 |
| CC1(C)S[C@@H]2[C@H](NC(=O)[C@H](N)c3ccc(O)cc3)C(=O)N2[C@H]1C(=O)O [Amoxicillin] | chromatographic logD | = | 1.65 |
| O=C1NC(=O)C(c2ccccc2)(c2ccccc2)N1 [Phenytoin sodium] | chromatographic logD | = | 2.43 |
| Cc1ncc(C[n+]2csc(CCO)c2C)c(N)n1 [Thiamin] | chromatographic logD | < | -1.5 |

Numbers sourced from paper PMC5843698.
